Taken from patent US9707239B2.

Assign ICAM1 (fold induction) to each entry below.
# Tested on: ICAM
# METHOD_NOTES: mRNA expression (Quantigene Plex) in NHLF cells: ICAM
# Assay type: cell-based, human
# REPORTED_CONDITIONS: Table 6, 6 h, mRNA normalized to GAPDH, above DMSO treated cells
Answers are plain numbers, in fold induction.

# example entries with known answers
[[record]]
compound = "CC1OCCC1S(=O)(=O)c1c(-c2ccc(C(F)(F)F)cc2)cnc2ccccc12 (stereo not shown)"
display_unit = "fold induction"
data_value = 1.47

[[record]]
compound = "C=Cc1c(C)c2cc3[nH]c(cc4nc(cc5nc(cc1[nH]2)C(C)=C5CCC(=O)[O-])C(CCC(=O)[O-])=C4C)c(C)c3C=C.[Co+2] [CoPP, Cobalt protoporphyrin IX, reference compound]"
display_unit = "fold induction"
data_value = 0.56

[[record]]
compound = "COC(=O)c1ccc2[nH]c(Nc3nc4ccccc4s3)nc2c1"
display_unit = "fold induction"
data_value = 0.77


Pending compound:
Answer with reported ICAM1 (fold induction) of COC(=O)[C@]12CCC(C)(C)CC1C1C(=O)C=C3[C@@]4(C)CC(C#N)C(=O)C(C)(C)[C@@H]4CC[C@@]3(C)[C@]1(C)CC2 (stereo partly shown) [Compound 5, reference compound]
1.16
